tested on: NCI-H522 lung; experiment: NCI tumour cell line growth inhibition, 48 h
PROPERTY: GI50

Worked examples, 8 compounds total:
compound=COC(=O)Cn1c2c(c3c(O)cccc31)C(=O)c1ccccc1-2 val="> 100 µM"
compound=N#C/C(=C\c1c(-c2ccccc2)[nH]c2ccccc12)S(=O)(=O)c1ccccc1 val="4.51 µM"
compound=O=C1c2c(c3c4ccccc4[nH]c3c3ccc4ccccc4c23)C(=O)N1CCN1CCCCC1 val="1.5 µM"
compound=Clc1cc(Cl)c(OCC#CI)cc1Cl val="1.53 µM"
compound=C[C@@H]1CC[C@H]2C(COCCOCC3=C(C(F)(F)F)O[C@@H]4O[C@@]5(C)CC[C@H]6[C@H](C)CC[C@@H]3[C@@]46OO5)=C(C(F)(F)F)O[C@@H]3O[C@@]4(C)CC[C@@H]1[C@]32OO4 val="2.9 µM"
compound="COc1ccc(C2CC(c3cc(OC)c(OC)c(OC)c3)=NN2C(C)=O)cc1OCC(=O)Nc1nc2ccc(C(F)(F)F)cc2s1 (centres undefined)" val="2.71 µM"
compound=CCCn1c(C)nc2c1C(=O)c1ccccc1C2=O val="18.7 µM"
compound=COc1ccc(-c2cc(-c3ccccc3)nc(SCCCC(=O)NO)n2)cc1 val="0.808 µM"

We next turn to a different compound, shown below.
Write down GI50 measured for item COc1cccc(NC(=O)c2sc3nc4c(cc3c2N)CN(Cc2ccccc2)CC4)c1
15.1 µM
